Experiment: Cellular viability qHTS for adrenocortical cancer (ACC) cell line NCI-H295R (AID 1963990); further: nearly all actives have a fitted effect of over 60% in size
Details: CellTiter-Glo ATP luminescence, 48 h; series mostly up to 46.1 µM
Description: PI: Naris Nilubol, MD Surgical Oncology Program, National Cancer Institute (NCI) National Institute of Health (NIH), Bethesda, Maryland Adrenocortical cancer (ACC) is a rare malignancy with poor survival outcomes and few treatment options. Currently, mitotane is the only FDA-approved therapy for ACC. […] Through a quantitative high-throughput drug screen (qHTS), we identified auranofin (AF), a thioredoxin reductase (TXNRD) inhibitor, as a promising candidate drug. […]
Records with an inconclusive call do not appear. Activity calls are given as the source filed them. The call rests on the fitted dose curve; in most records, active means well fitted cell-killing curve with a large enough effect; inconclusive means small, poorly fitted or top-dose-only effect; inactive means flat fitted curve, though single readings scatter.
// one of active, inactive, no free text

compound=O=C(O)c1ccc(-n2nc(-c3ccccc3O)nc2-c2ccccc2O)cc1 label_class=active
compound=O=C1NC(=O)C(c2cnc3ccccn23)=C1c1cn2c3c(cccc13)CN(C(=O)N1CCOCC1)CC2 label_class=inactive
compound=CCCC(=O)OC[C@@H](OC(=O)CCC)[C@@H](OC(=O)CCC)[C@H](Cn1c2nc(=O)[nH]c(=O)c-2nc2cc(C)c(C)cc21)OC(=O)CCC label_class=inactive
compound="Oc1ccc(C(O)CNCCCCCCNCC(O)c2ccc(O)c(O)c2)cc1O (stereo not given)" label_class=inactive

Let's switch to this compound now.
Kindly provide the recorded test outcome for the following compound: COc1cc2[nH]c(=O)[nH]c(=O)c2cc1OC
inactive

====

Test: Quantitative highthroughput screen to assess conditional lethalithy of SEM cells grown in RPMI1640 with unreated serum (RPMI+s) (AID 1963883); further: nearly all actives have a fitted effect of over 35% in size;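 on viability: 100% = DMSO wells and 0% = empty wells without cells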
Conditions: SEM B-ALL cells, CellTiter-Glo viability, 48 h; series mostly up to 45.8 µM
Results filed as inconclusive are left out. Calls of active or inactive are those of the source. Calls come from the whole dose curve; as a rule, active = well fitted cell-killing curve with a large enough effect; inconclusive = small, poorly fitted or top-dose-only effect, or effect the other way; inactive = no such curve, though single readings can be large or run the other way.
// one of 1 = active, -1 = inactive, no free text

Answered examples (3):
compound=CC(C)(C)C(=O)OCOP(=O)(COCCn1cnc2c(N)ncnc21)OCOC(=O)C(C)(C)C label_class=1
compound=CC(C)(C)[N+]([O-])=Cc1ccc(S(=O)(=O)O)cc1S(=O)(=O)O label_class=-1
compound=CCOC(=O)C1=C(O)C(=O)N(Cc2ccccc2)C1 label_class=-1

Kindly provide the recorded test outcome for the following compound: CC1(C)OC2=C(C(=O)c3ccccc3C2=O)[C@H](NCc2ccccc2)[C@H]1O
1

Kindly provide the recorded test outcome for the following compound: NC1(c2ccc(-c3nc4ccn5c(=O)[nH]nc5c4cc3-c3ccccc3)cc2)CCC1
1

Kindly provide the recorded test outcome for the following compound: O=C(Nc1cccc(Nc2ncc(Br)c(NCCc3cnc[nH]3)n2)c1)N1CCCC1
1

Kindly provide the recorded test outcome for the following compound: NC(=O)C1CCCc2c1[nH]c1ccc(Cl)cc21 (centres undefined)
1

Kindly provide the recorded test outcome for the following compound: Cn1c(CNc2ccc(C(=N)N)cc2)nc2cc(C(=O)N(CCC(=O)O)c3ccccn3)ccc21
-1

Kindly provide the recorded test outcome for the following compound: COc1cc([C@@H]2c3cc4c(cc3[C@@H](O[C@@H]3O[C@@H]5CO[C@@H](C)O[C@@H]5[C@H](O)[C@@H]3O)[C@H]3COC(=O)[C@H]23)OCO4)cc(OC)c1O
1

====

Assay: Quantitative highthroughput screen to assess conditional lethalithy of NOMO1 cells grown in RPMI1640 with dialyzed fetal bovine serum (RPMI+ds) (AID 1963877); further: nearly all actives have a fitted effect of over 30% in size;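 on viability: 100% = DMSO control wells and 0% = empty wells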
Details: NOMO1 in RPMI+dialyzed FBS viability, ATP luminescence, 48 h; series mostly up to 45.8 µM
Results filed as inconclusive are left out. Active and inactive are the calls of the source. Calls come from the whole dose curve; as a rule, active = well fitted cell-killing curve with a large enough effect; inconclusive = small, poorly fitted or top-dose-only effect; inactive = flat fitted curve, though single readings scatter.
// one of True for active, False for inactive, no free text

molecule=CC(C)c1cc(C(=O)N2Cc3ccc(CN4CCN(C)CC4)cc3C2)c(O)cc1O label_class=True
molecule=Cc1ccc(NC(=O)c2cccc(N(C)C)c2)cc1NC(=O)c1ccc(O)cc1 label_class=False
molecule="C[N+]1(C)[C@@H]2CC(OC(=O)[C@H](CO)c3ccccc3)C[C@H]1[C@H]1O[C@@H]12 (stereo partly specified)" label_class=False
molecule=C[C@H](Cn1cnc2c(N)ncnc21)OCP(=O)(O)O label_class=False
molecule="O=C1CCC(N2C(=O)c3ccccc3C2=O)C(=O)N1 (stereo unspecified)" label_class=False

Kindly provide the recorded test outcome for the following molecule: Cc1nn(C)c2c1C(c1ccc(C(F)(F)F)cc1)C(C#N)=C(N)O2 (stereo unspecified)
False

Kindly provide the recorded test outcome for the following molecule: COc1cc2nccc(Oc3ccc(NC(=O)NC4CC4)c(Cl)c3)c2cc1C(N)=O
True

Kindly provide the recorded test outcome for the following molecule: Cc1ccc(S(=O)(=O)Nc2nc3ccccc3nc2Nc2ccc3nsnc3c2)cc1
True

Kindly provide the recorded test outcome for the following molecule: Cc1oc(=O)oc1CN1CCN(c2cc3c(cc2F)c(=O)c(C(=O)O)c2n3C(C)S2)CC1 (stereo unspecified)
False

====

Assay: Quantitative highthroughput screen to assess conditional lethalithy of P12 Ichikawa cells grown in RPMI1640 with untreated serum (RPMI+s) (AID 1963881); further: nearly all actives have a fitted effect of over 35% in size;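 on viability: 100% = DMSO wells and 0% = empty wells without cells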
Conditions: ATP luminescence, 48 h; viability; series mostly up to 45.8 µM
Inconclusive results are not listed. The source made the active and inactive calls. Calls come from the whole dose curve; as a rule, active = well fitted cell-killing curve with a large enough effect; inconclusive = small, poorly fitted or top-dose-only effect; inactive = flat fitted curve, though single readings scatter.
// one of active, inactive, no free text

Answered examples (2):
molecule="O=C(CS(=O)Cc1ccco1)NCC=CCOc1cc(CN2CCCCC2)ccn1 (centres undefined)" label_class=inactive
molecule=CS[C@H]1SC[C@@H]2C(=O)N(C)[C@H](C(C)C)C(=O)OC[C@H](NC(=O)c3cnc4ccccc4n3)C(=O)N[C@H](C)C(=O)N(C)[C@@H]1C(=O)N(C)[C@H](C(C)C)C(=O)OC[C@H](NC(=O)c1cnc3ccccc3n1)C(=O)N[C@H](C)C(=O)N2C label_class=active

Kindly provide the recorded test outcome for the following molecule: O=C(NC1CCOCC1)c1ccc(-c2cc(-c3cn[nH]c3-c3ccccn3)ccn2)cc1
inactive

Kindly provide the recorded test outcome for the following molecule: CC1(C)CC(O)CC(C)(C)N1[O]
inactive

Kindly provide the recorded test outcome for the following molecule: CNC(=O)c1c(-c2ccc(F)cc2)oc2cc(N(CCO)S(C)(=O)=O)c(C3CC3)cc12
active

Kindly provide the recorded test outcome for the following molecule: Nc1ncnc2nc(-c3ccc(N4CCOCC4)nc3)cc(-c3cccc(Br)c3)c12
inactive

Kindly provide the recorded test outcome for the following molecule: CCc1c2c(nc3ccc(OC(=O)N4CCC(N5CCCCC5)CC4)cc13)-c1cc3c(c(=O)n1C2)COC(=O)[C@]3(O)CC
active

Kindly provide the recorded test outcome for the following molecule: CC1(C)[C@H](C(=O)O)N2C(=O)C[C@H]2S1(=O)=O
inactive

Kindly provide the recorded test outcome for the following molecule: CCN(CC)Cc1ccc2cc(COC(=O)Nc3ccc(C(=O)NO)cc3)ccc2c1
active

Kindly provide the recorded test outcome for the following molecule: CCS(=O)(=O)c1cccc(-c2cc(C(=O)NC3CCN(C)CC3)c(C)c3[nH]c4ncc(C)cc4c23)c1
active

Kindly provide the recorded test outcome for the following molecule: O=C(O)c1cc(O)c2c(c1)C(=O)c1cccc(O)c1C2=O
inactive

Kindly provide the recorded test outcome for the following molecule: N#Cc1c(NC(=O)c2cccc3ccccc23)sc2c1CCCC2
active

Kindly provide the recorded test outcome for the following molecule: CCOc1ccc(Cc2cc([C@@H]3O[C@H](CO)[C@@H](O)[C@H](O)[C@@H]3O)ccc2Cl)cc1
inactive

Kindly provide the recorded test outcome for the following molecule: COc1cccc(-c2cc(=O)c3ccccc3o2)c1N
inactive

Kindly provide the recorded test outcome for the following molecule: CCCn1c(=O)c2[nH]c(C34CC5CC3C[C@@H](C5)C4)nc2n(CCC)c1=O
inactive

Kindly provide the recorded test outcome for the following molecule: CC(C)[C@H](N)C(=O)OCCOCn1cnc2c(=O)[nH]c(N)nc21
inactive

Kindly provide the recorded test outcome for the following molecule: CCOC(=O)C(C)Oc1cccc2c(=O)n(CC(=O)Nc3ccc4c(c3)OCCO4)ccc12 (centres undefined)
inactive

Kindly provide the recorded test outcome for the following molecule: NS(=O)(=O)c1ccc(NC2=CC(=O)c3ccccc3C2=O)cc1
inactive

Kindly provide the recorded test outcome for the following molecule: NC(N)=Nc1nc(CSCCC(N)=NS(N)(=O)=O)cs1
inactive

====

Assay: Cellular viability qHTS for adrenocortical cancer (ACC) cell line NCI-H295R (AID 1963990); further: nearly all actives have a fitted effect of over 60% in size
Settings: CellTiter-Glo ATP luminescence, 48 h; series mostly up to 46.1 µM
Results filed as inconclusive are left out. Activity calls are given as the source filed them. The call rests on the fitted dose curve; in most records, active means well fitted cell-killing curve with a large enough effect; inconclusive means small, poorly fitted or top-dose-only effect; inactive means flat fitted curve, though single readings scatter.
// one of active, inactive, no free text

Answered examples (8):
molecule="NC(=O)C1CCCc2c1[nH]c1ccc(Cl)cc21 (stereo not given)" label_class=inactive
molecule=C=Cc1c(C)c2cc3[nH]c(cc4nc(cc5nc(cc1[nH]2)C(C)=C5CCC(=O)O)C(CCC(=O)O)=C4C)c(C)c3C=C label_class=inactive
molecule=Cn1c(=O)c2c(ncn2C)n(C)c1=O label_class=inactive
molecule="COC(=O)C(c1ccccc1Cl)N1CCc2sccc2C1 (stereo not given)" label_class=inactive
molecule=CNC(=O)CN1CCC(Oc2cc3c(Nc4cccc(Cl)c4F)ncnc3cc2OC)CC1 label_class=inactive
molecule=CCCOc1ccc2nc(NC(=O)OC)[nH]c2c1 label_class=active
molecule=NC(CO)(CO)CO label_class=inactive
molecule=C/C(=N/NC(=O)c1ccncc1)C(=O)O label_class=inactive

Kindly provide the recorded test outcome for the following molecule: O=C(NCC(=O)N1CC[C@H](NC2CCC(O)(c3ccc(-c4ncccn4)cn3)CC2)C1)c1cccc(C(F)(F)F)c1 (stereo not given in full)
inactive

Kindly provide the recorded test outcome for the following molecule: C[C@H](CCC(=O)O)[C@H]1CC[C@H]2[C@@H]3[C@H](O)C[C@@H]4C[C@H](O)CC[C@]4(C)[C@H]3CC[C@]12C
inactive
